assay_text: Apigenin premixtures with various solubilizing agents, solubility
Type: physicochemical
reported_conditions: ethanolamine, 76 °C, organic solvent or mixture, thermodynamic from solid, in Ethanolamine, 400 rpm (synthetic apigenin)
observable: solubility (mg/mL)
Kindly answer with a numeric value in mg/mL, unit omitted.

Memo: O=c1cc(-c2ccc(O)cc2)oc2cc(O)cc(O)c12 , reported solubility: 20.2

----------
assay_text: Apigenin premixtures with various solubilizing agents, solubility
Type: physicochemical
reported_conditions: TEA/1-Dimethylamino-2-propanol/Ethylenediamine, organic solvent or mixture, thermodynamic from solid, in TEA/1-Dimethylamino-2-propanol/Ethylenediamine, room temp, 330-600 rpm
Text: According to another embodiment of the invention, a process for preparing a hair care composition includes mixing apigenin and a solubilizing agent at a temperature sufficient to allow dissolution of the apigenin in the solubilizing agent to form a premixture; combining the premixture with an aqueous carrier to form the hair care composition; and optionally, adjusting the pH of the hair care composition with acid to within a range from about 3 to about 10. […]
observable: solubility (mg/mL)
The reply should contain only the number, in mg/mL.

Field solubility (entry O=c1cc(-c2ccc(O)cc2)oc2cc(O)cc(O)c12 ) reads 20.6

----------
assay_text: Apigenin premixtures with various solubilizing agents, solubility
Assay type: physicochemical
reported_conditions: Dimethyl capramide, organic solvent or mixture, thermodynamic from solid, in Dimethyl capramide, Room temp, 400 rpm
observable: solubility (mg/mL)
Give the value in mg/mL but do not write mg/mL after it.

Consider O=c1cc(-c2ccc(O)cc2)oc2cc(O)cc(O)c12 [apigenin] . Its measured solubility is 16

----------
assay_text: Apigenin premixtures with various solubilizing agents, solubility
Type: physicochemical
reported_conditions: TEA/2-Dimethylaminoethanol/1-Dimethylamino-2-propanol, organic solvent or mixture, thermodynamic from solid, in TEA/2-Dimethylaminoethanol/1-Dimethylamino-2-propanol, room temp, 330-400; 1500 sm
observable: solubility (mg/mL)
Unit mg/mL implied. Number only.

Consider O=c1cc(-c2ccc(O)cc2)oc2cc(O)cc(O)c12 . Its measured solubility is 15

----------
assay_text: Apigenin premixtures with various solubilizing agents, solubility
Type: physicochemical
reported_conditions: Triethylene glycol, 156 °C, organic solvent or mixture, thermodynamic from solid, in Triethylene glycol, 300 rpm
observable: solubility (µg/mL)
Supply the numeric figure in µg/mL, leaving out any unit text.

What the record says about O=c1cc(-c2ccc(O)cc2)oc2cc(O)cc(O)c12 : solubility is 6110

----------
assay_text: Apigenin premixtures with various solubilizing agents, solubility
Type: physicochemical
reported_conditions: 1-Dimethylamino-2-propanol solution, organic solvent or mixture, thermodynamic from solid, in 1-Dimethylamino-2-propanol solution, room temp, 300 rpm
observable: solubility

Memo: O=c1cc(-c2ccc(O)cc2)oc2cc(O)cc(O)c12 , reported solubility: 20.2 mg/mL

----------
assay_text: Apigenin premixtures with various solubilizing agents, solubility
Assay type: physicochemical
reported_conditions: 1-dimethylamino-2-propanol/ethylenediamine, organic solvent or mixture, thermodynamic from solid, in 1-Dimethylamino-2-propanol/Ethylenediamine, room temp, 400-600 rpm
observable: solubility (mg/mL)
# value in mg/mL; strip the unit string

Measured solubility, O=c1cc(-c2ccc(O)cc2)oc2cc(O)cc(O)c12 [apigenin] : 20.1

----------
assay_text: Apigenin premixtures with various solubilizing agents, solubility
Format: physicochemical
reported_conditions: 1-methylimidazole, 82 °C, organic solvent or mixture, thermodynamic from solid, in 1-Methylimidazole, 100 rpm
observable: solubility (mg/mL)
State just the number; it will be interpreted in mg/mL.

// sample O=c1cc(-c2ccc(O)cc2)oc2cc(O)cc(O)c12 [apigenin] , its solubility was 20.4

----------
assay_text: Apigenin premixtures with various solubilizing agents, solubility
Type: physicochemical
reported_conditions: 1-dimethylamino-2-propanol/ethanolamine, organic solvent or mixture, thermodynamic from solid, in 1-Dimethylamino-2-propanol/Ethanolamine, room temp, 300 rpm
observable: solubility (mg/mL)
// return numeric value only (unit: mg/mL, not printed)

// solubility value for O=c1cc(-c2ccc(O)cc2)oc2cc(O)cc(O)c12 : 16.6

----------
assay_text: Apigenin premixtures with various solubilizing agents, solubility
Format: physicochemical
reported_conditions: laurocapram, 98%, organic solvent or mixture, thermodynamic from solid, in Laurocapram, room temp, 500-600 rpm
Text: According to another embodiment of the invention, a process for preparing a hair care composition includes mixing apigenin and a solubilizing agent at a temperature sufficient to allow dissolution of the apigenin in the solubilizing agent to form a premixture; combining the premixture with an aqueous carrier to form the hair care composition; and optionally, adjusting the pH of the hair care composition with acid to within a range from about 3 to about 10. […]
observable: solubility (mg/mL)
Express it in mg/mL; write the number only.

What the record says about O=c1cc(-c2ccc(O)cc2)oc2cc(O)cc(O)c12 [apigenin] : solubility is 13.9

----------
assay_text: Apigenin premixtures with various solubilizing agents, solubility
Type: physicochemical
reported_conditions: ethanolamine, 29 °C, organic solvent or mixture, thermodynamic from solid, in Ethanolamine, 350-500 rpm
observable: solubility (mg/mL)
Respond with the bare value in mg/mL.

Summary for this compound, O=c1cc(-c2ccc(O)cc2)oc2cc(O)cc(O)c12 : solubility is 20.1

----------
assay_text: Apigenin premixtures with various solubilizing agents, solubility
Format: physicochemical
reported_conditions: ethanolamine, organic solvent or mixture, thermodynamic from solid, in Ethanolamine, room temp, 350-740 rpm
observable: solubility (mg/mL)
Please respond with the number in mg/mL and leave the unit unwritten.

Kindly note the recorded solubility for O=c1cc(-c2ccc(O)cc2)oc2cc(O)cc(O)c12 , which is 20.2

----------
assay_text: Apigenin premixtures with various solubilizing agents, solubility
Assay type: physicochemical
reported_conditions: ethanolamine, 76 °C, organic solvent or mixture, thermodynamic from solid, in Ethanolamine, 300 rpm
observable: solubility (mg/mL)
Only the number, expressed in mg/mL, is required.

The reported solubility of the molecule O=c1cc(-c2ccc(O)cc2)oc2cc(O)cc(O)c12 [apigenin] was 20.3

----------
assay_text: Apigenin premixtures with various solubilizing agents, solubility
Format: physicochemical
reported_conditions: 1-dimethylamino-2-propanol, organic solvent or mixture, thermodynamic from solid, in 1-Dimethylamino-2-propanol solution, room temp, 1500 sm
From the text: According to another embodiment of the invention, a process for preparing a hair care composition includes mixing apigenin and a solubilizing agent at a temperature sufficient to allow dissolution of the apigenin in the solubilizing agent to form a premixture; combining the premixture with an aqueous carrier to form the hair care composition; and optionally, adjusting the pH of the hair care composition with acid to within a range from about 3 to about 10. […]
observable: solubility

So for O=c1cc(-c2ccc(O)cc2)oc2cc(O)cc(O)c12 , the logged solubility turned out to be 20 mg/mL

----------
assay_text: Apigenin premixtures with various solubilizing agents, solubility
Assay type: physicochemical
reported_conditions: laurocapram, 98%, 140 °C, organic solvent or mixture, thermodynamic from solid, in Laurocapram, 500-600 rpm
observable: solubility (mg/mL)
Form entry: value (mg/mL) — number only.

For this molecule ( O=c1cc(-c2ccc(O)cc2)oc2cc(O)cc(O)c12 ), measured solubility is 14

----------
assay_text: Apigenin premixtures with various solubilizing agents, solubility
Assay type: physicochemical
reported_conditions: diethanolamine, 128 °C, organic solvent or mixture, thermodynamic from solid, in Diethanolamine, 550 rpm
observable: solubility (mg/mL)
Your answer should be a plain number; it is taken to be in mg/mL.

Recorded solubility (molecule O=c1cc(-c2ccc(O)cc2)oc2cc(O)cc(O)c12 [apigenin] ): 20.2

----------
assay_text: Apigenin premixtures with various solubilizing agents, solubility
Format: physicochemical
reported_conditions: pyridine, organic solvent or mixture, thermodynamic from solid, in Pyridine, room temp, 300 rpm
observable: solubility

Sample O=c1cc(-c2ccc(O)cc2)oc2cc(O)cc(O)c12 ; solubility observed: 15.8 mg/mL

----------
assay_text: Apigenin premixtures with various solubilizing agents, solubility
Format: physicochemical
reported_conditions: 2-amino-2-methyl-1-propanol, 71 °C, organic solvent or mixture, thermodynamic from solid, in 2-amino-2-methyl-1-propanol, 450 rpm
observable: solubility (mg/mL)
// return numeric value only (unit: mg/mL, not printed)

Noted for O=c1cc(-c2ccc(O)cc2)oc2cc(O)cc(O)c12 : its solubility reads 14.8

----------
assay_text: Apigenin premixtures with various solubilizing agents, solubility
Type: physicochemical
reported_conditions: ethylenediamine, 28 °C, organic solvent or mixture, thermodynamic from solid, in Ethylenediamine, 320 rpm
observable: solubility (mg/mL)
Value expressed in mg/mL; do not type the unit.

Measured solubility of O=c1cc(-c2ccc(O)cc2)oc2cc(O)cc(O)c12 [apigenin] : 20

----------
assay_text: Apigenin premixtures with various solubilizing agents, solubility
Type: physicochemical
reported_conditions: 2-dimethylaminoethanol, organic solvent or mixture, thermodynamic from solid, in 2-Dimethylaminoethanol, room temp, 300 rpm
observable: solubility (mg/mL)
The answer is to be given in mg/mL; state only the numeric part.

The reported solubility of the compound O=c1cc(-c2ccc(O)cc2)oc2cc(O)cc(O)c12 [apigenin] was 20.2

----------
assay_text: Apigenin premixtures with various solubilizing agents, solubility
Assay type: physicochemical
reported_conditions: TEA/1-Dimethylamino-2-propanol, organic solvent or mixture, thermodynamic from solid, in TEA/1-Dimethylamino-2-propanol, room temp, 350-450 rpm
observable: solubility (mg/mL)
Numeric answer only, unit mg/mL assumed.

The recorded solubility for O=c1cc(-c2ccc(O)cc2)oc2cc(O)cc(O)c12 [apigenin] is 17
